Reference source for all entries: ChEMBL document CHEMBL5058564

Assign Growth Rate to each entry below.
System: U2OS
procedure text: Incucyte cell viability with U2OS; note: unitless GR value; below 1 slowed growth and below 0 cell loss
Type: toxicity, cell-based
run parameters: human, 12 h, 10 µM, compound concentration 10 uM, replicate number 1, timepoint 12 hours

Examples with their reported Growth Rate follow.
{"molecule": "Cc1nn(C)c(C)c1-c1cccc2c1CC[C@H](N(C)C)C2", "subject of test": "U2OS", "Growth Rate": 0.78}
{"molecule": "COC[C@@H](c1ccc(C(F)(F)F)cc1)N1CCN(C2(C)CCN(C(=O)c3c(C)ncnc3C)CC2)C[C@@H]1C.O=C(O)/C=C\\C(=O)O [VICRIVIROC MALEATE]", "subject of test": "U2OS", "Growth Rate": 0.57}
{"molecule": "Br.Oc1cc2c(cc1O)C(c1ccccc1)CNCC2 (centres undefined)", "subject of test": "U2OS", "Growth Rate": 0.47}
{"molecule": "O=C(O)CCc1ccc(NCc2cccc(Oc3ccccc3)c2)cc1 [GW9508]", "subject of test": "U2OS", "Growth Rate": 1}
{"molecule": "COc1cc(OC)cc(C(=O)NNC(=O)Nc2cccc3ccccc23)c1", "subject of test": "U2OS", "Growth Rate": 1}

For each listed entry, give its Growth Rate.
1. Cc1cc(=O)n(C)c2cc(N3C(=O)CC[C@H](NS(=O)(=O)CC(C)C)[C@H]3c3ccc(Cl)cc3)ccc12
2. CC(C)C[C@H](CO)Nc1nc(S[C@@H](C)c2ccccc2)nc2nc(N)sc12 [AZD-8797]
3. O=C(NCCO)c1cccc(-c2cc(Nc3ccc(OC(F)(F)F)cc3)ncn2)c1

A:
[0.8, 0.93, 0.52]

Q: What Growth Rate appears in the records for this molecule with U2OS? Br.CS(=O)(=O)Nc1c(O)ccc2c1CCCC2C1=NCCN1 (centres undefined)
A: 0.72
